Tested on: T47D
Assay text: Growth inhibition of human T47D cells
Assay type: functional
Observable: GI50
Write the figure, then the unit, nothing else.

Worked cases, answers included:
In [3]: df
Out[3]:
                            compound_smiles  test_value
0  COc1cc(/C=C/C(=O)c2cccc(-n3cc(-c4ccc(Cl)cc4)[nH]c3=O)c2)ccc1O     3.09 µM
1  COc1cc(/C=C/C(=O)c2cccc(-n3cc(-c4ccccc4)[nH]c3=O)c2)cc(OC)c1OC     2.19 µM
2  COc1cc(/C=C/C(=O)c2cccc(-n3cc(-c4ccc(Cl)cc4)[nH]c3=O)c2)cc(OC)c1OC     6.65 µM
3  COc1cc(/C=C/C(=O)c2cccc(-n3cc(-c4cc(OC)c(OC)c(OC)c4)[nH]c3=O)c2)cc(OC)c1OC     3.08 µM
4  O=C(/C=C/c1cccc(O)c1)c1cccc(-n2cc(-c3ccccc3)[nH]c2=O)c1     4.24 µM
5  O=C(/C=C/c1cccc(O)c1)c1cccc(-n2cc(-c3ccc(Cl)cc3)[nH]c2=O)c1     1.92 µM
6  COc1ccc(-c2cn(-c3cccc(C(=O)/C=C/c4ccc(O)c(OC)c4)c3)c(=O)[nH]2)cc1      3.6 µM
7  COc1ccc(-c2cn(-c3cccc(C(=O)/C=C/c4cc(OC)c(OC)c(OC)c4)c3)c(=O)[nH]2)cc1     3.84 µM

In the following, a different compound is considered.
-- ask What does the record list as GI50 for COc1cc(/C=C/C(=O)c2cccc(-n3cc(-c4ccccc4)[nH]c3=O)c2)ccc1O ?
-- reply 2.7 µM

---

Assay text: Growth inhibition of human Hs 578T cells
Format: functional
Observable: GI50 (µM)
Number in µM, nothing else.

Worked cases, answers included:
>>> print(df.to_string())
                            compound_smiles  observable  test_value
0  COc1ccc(-c2cn(-c3cccc(C(=O)/C=C/c4ccc(O)c(OC)c4)c3)c(=O)[nH]2)cc1        GI50        4.25
1  COc1cc(/C=C/C(=O)c2cccc(-n3cc(-c4ccccc4)[nH]c3=O)c2)cc(OC)c1OC        GI50        3.41
2  COc1cc(/C=C/C(=O)c2cccc(-n3cc(-c4ccc(Cl)cc4)[nH]c3=O)c2)ccc1O        GI50        4.67
3  COc1ccc(-c2cn(-c3cccc(C(=O)/C=C/c4cc(OC)c(OC)c(OC)c4)c3)c(=O)[nH]2)cc1        GI50        3.39
4  COc1cc(/C=C/C(=O)c2cccc(-n3cc(-c4ccccc4)[nH]c3=O)c2)ccc1O        GI50        4.16
5  O=C(/C=C/c1cccc(O)c1)c1cccc(-n2cc(-c3ccccc3)[nH]c2=O)c1        GI50        6.14
6  O=C(/C=C/c1cccc(O)c1)c1cccc(-n2cc(-c3ccc(Cl)cc3)[nH]c2=O)c1        GI50           4

In the following, a different molecule is considered.
-- ask What does the record list as GI50 for COc1cc(/C=C/C(=O)c2cccc(-n3cc(-c4ccc(Cl)cc4)[nH]c3=O)c2)cc(OC)c1OC ?
-- reply 5.96
